Hello, the source for this data is patent US20230143612A1, in case you need it.

- target_or_system: PD-L1 His protein / PD-1 Fc protein (Homo sapiens)
- Sequence (Q9NZQ7 19-238 limits assumed): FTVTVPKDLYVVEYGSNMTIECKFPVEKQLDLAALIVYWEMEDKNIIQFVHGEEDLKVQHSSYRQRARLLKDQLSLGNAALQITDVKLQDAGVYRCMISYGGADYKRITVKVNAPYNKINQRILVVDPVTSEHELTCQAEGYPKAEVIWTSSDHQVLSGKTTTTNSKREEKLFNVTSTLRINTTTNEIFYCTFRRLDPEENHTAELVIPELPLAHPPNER
- procedure_text: HTRF Assay (PD-1/PD-L1 interaction)
- assay_context: PD-L1 His 6 nM, PD-1 Fc 6 nM
result_type: IC50 (nM)
Express it in nM; write the number only.

Per the records, this compound ( CNC(=O)CN(C)Cc1cnc2cc(-c3cccc(-c4cccc(-c5ccc(CNC[C@@H]6CCC(=O)N6)c(OC)n5)c4Cl)c3Cl)ccn2c1=O [Example 200] ) has IC50 equal to 0.1

Per the records, this compound ( COc1nc(-c2cccc(-c3cccc(-c4ccn5c(=O)c(CNC[C@@H]6CCC(=O)N6)cnc5c4)c3Cl)c2Cl)ccc1CN1CC[C@H](C(=O)O)C1 [Example 118] ) has IC50 equal to 0.2

Per the records, this compound ( COc1nc(-c2cccc(-c3cccc(-c4ccn5c(=O)c(CN[C@H]6CCOC[C@@H]6O)cnc5c4)c3Cl)c2Cl)ccc1CNC[C@@H]1CCC(=O)N1 [Example 163] ) has IC50 equal to 0.8

Per the records, this compound ( COc1nc(-c2cccc(-c3cccc(-c4ccn5c(=O)c(CNC[C@@H]6CCC(=O)N6)cnc5c4)c3Cl)c2Cl)ccc1CN1CC(C)(O)C1 [Example 157] ) has IC50 equal to 1.6

Per the records, this compound ( COc1cc(-c2cccc(-c3cccc(-c4ccn5c(=O)c(CNC[C@@H]6CCC(=O)N6)cnc5c4)c3Cl)c2Cl)cc(F)c1CNC[C@@H]1CCC(=O)N1 [Example 104] ) has IC50 equal to 8.8

Per the records, this compound ( COc1nc(-c2cccc(-c3cccc(-c4cc(OC)c5c(CNC[C@@H]6CCC(=O)N6)cnn5c4)c3Cl)c2Cl)ccc1CNC[C@@H]1CCC(=O)N1 [Example 397] ) has IC50 equal to 290
